- experiment.description: Thermodynamic solubility of the compound at pH 1
- Format: physicochemical
- assay.context: buffer, read-out: Therm_solubility
Overview of reported solubility thermodynamic across a group of compounds:

// known answers, use as guide
1) Cn1c(=O)c2c(nc3n2CCN(CCn2cccc2)C3)n(C)c1=O
> 1500 µg/mL
2) Cn1c(=O)c2c(nc3n2CCN(CCc2ccccc2Br)C3)n(C)c1=O
> 1500 µg/mL
3) Cn1c(=O)c2c(nc3n2CCN(CCCn2cccc2)C3)n(C)c1=O
> 1500 µg/mL
4) Cn1c(=O)c2c(nc3n2CCN(CCOc2cccc(F)c2)C3)n(C)c1=O
> 1500 µg/mL

Suppose we examine the compound Cn1c(=O)c2c(nc3n2CCN(CCOc2ccccc2F)C3)n(C)c1=O ; what solubility thermodynamic value has been reported?
> 1500 µg/mL

May I ask what solubility thermodynamic has been recorded for Cn1c(=O)c2c(nc3n2CCN(C2CCN(Cc4ccccc4)CC2)C3)n(C)c1=O ?
> 1500 µg/mL

---

- target.or.system: Adenosine receptor A2b (Homo sapiens) (UniProt P29275)
- experiment.description: Displacement of [3H]PSB-603 from human A2B receptor expressed in CHO cell membrane at 1 uM relative to control
- Format: cell membranes
measurement.type: Activity (%)

Consider the worked cases shown below.
1) Cn1c(=O)c2c(nc3n2CCN(CCCn2cccc2)C3)n(C)c1=O
10
2) Cn1c(=O)c2c(nc3n2CCN(CCCc2ccc(Cl)cc2)C3)n(C)c1=O
7
3) Cn1c(=O)c2c(nc3n2CCN(CCOc2ccccc2F)C3)n(C)c1=O
12
4) COc1cccc(CCN2CCn3c(nc4c3c(=O)n(C)c(=O)n4C)C2)c1OC
8
5) COc1cccc(C#CCN2CCn3c(nc4c3c(=O)n(C)c(=O)n4C)C2)c1
7

a = Cn1c(=O)c2c(nc3n2CCN(c2cccc4ccccc24)C3)n(C)c1=O
b = COc1ccc(CCN2CCn3c(nc4c3c(=O)n(C)c(=O)n4C)C2)cc1OC
c = Cn1c(=O)c2c(nc3n2CCN(CCc2c(Cl)cccc2Cl)C3)n(C)c1=O
# desc sort on Activity across 3 compounds Enter labels, ranked according to the request.
c, a, b

a = Cn1c(=O)c2c(nc3n2CCN(c2ccccc2)C3)n(C)c1=O
b = Cn1c(=O)c2c(nc3n2CCN(CCc2ccccc2Cl)C3)n(C)c1=O
c = Cn1c(=O)c2c(nc3n2CCN(CCCn2ccnc2)C3)n(C)c1=O
Rank the items in ascending order with respect to Activity. Give the labels in the order requested.
c, a, b

A = CC(CN1CCn2c(nc3c2c(=O)n(C)c(=O)n3C)C1)c1ccccc1 (stereo not given)
B = COc1ccccc1CCN1CCn2c(nc3c2c(=O)n(C)c(=O)n3C)C1
Higher Activity between A and B ? Lab log: write the label of the selected item as the result.
A

---

Each entry below carries its reported pIC50.
- target.or.system: Amine oxidase [flavin-containing] B (Homo sapiens, UniProt P27338)
- Sequence (P27338 whole entry): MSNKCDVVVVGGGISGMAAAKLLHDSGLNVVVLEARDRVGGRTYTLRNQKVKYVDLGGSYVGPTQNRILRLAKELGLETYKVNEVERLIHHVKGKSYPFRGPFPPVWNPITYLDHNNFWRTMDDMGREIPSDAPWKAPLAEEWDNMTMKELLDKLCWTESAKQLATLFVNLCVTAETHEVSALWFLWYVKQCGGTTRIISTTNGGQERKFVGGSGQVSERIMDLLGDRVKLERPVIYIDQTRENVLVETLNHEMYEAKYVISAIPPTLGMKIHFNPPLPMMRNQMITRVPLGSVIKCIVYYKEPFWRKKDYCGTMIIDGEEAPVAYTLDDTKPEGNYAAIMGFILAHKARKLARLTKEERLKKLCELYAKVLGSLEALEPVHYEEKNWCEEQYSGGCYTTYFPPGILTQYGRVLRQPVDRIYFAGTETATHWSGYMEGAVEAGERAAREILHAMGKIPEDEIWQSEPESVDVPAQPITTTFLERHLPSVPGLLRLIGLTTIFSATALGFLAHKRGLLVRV
- experiment.description: Inhibition of recombinant human MAO-B expressed in baculovirus infected BTI insect cells preincubated for 30 mins followed by addition of p-tyramine as substrate measured over 45 mins by Amplex Red MAO assay
pIC50: −log10 of the molar value.

1. Cn1c(=O)c2c(nc3n2CCN(CCCc2ccccc2)C3)n(C)c1=O
< 5.00
2. Cn1c(=O)c2c(nc3n2CCN(CCCc2cccc(Br)c2)C3)n(C)c1=O
< 5.00
3. COc1cccc2c1CC[C@H](N1CCn3c(nc4c3c(=O)n(C)c(=O)n4C)C1)C2
< 5.00
4. Cn1c(=O)c2c(nc3n2CCN(Cc2ccccc2)C3)n(C)c1=O
< 5.00
5. Cn1c(=O)c2c(nc3n2CCN(c2cccc(Cl)c2)C3)n(C)c1=O
6.41

For the compound shown here, Cn1c(=O)c2c(nc3n2CCN(CC(O)c2ccccc2)C3)n(C)c1=O (configuration not stated) , give the reported pIC50.
< 5.00

Please report the recorded pIC50 for Cn1c(=O)c2c(nc3n2CCN(CCn2cccc2)C3)n(C)c1=O .
< 5.00

// pIC50 lookup, key: Cn1c(=O)c2c(nc3n2CCN(c2ccc(F)cc2)C3)n(C)c1=O
5.65

Which value of pIC50 has been reported for Cc1cc(CN2CCn3c(nc4c3c(=O)n(C)c(=O)n4C)C2)n(C)n1 in the records?
< 5.00

I'd like to know its pIC50. The compound in question is Cn1c(=O)c2c(nc3n2CCN(CCc2cccc(C(F)(F)F)c2)C3)n(C)c1=O
5.00

Could you tell me which pIC50 is on file for Cn1c(=O)c2c(nc3n2CCN(CCOc2ccccc2F)C3)n(C)c1=O ?
< 5.00

Value lookup for pIC50; key = Cn1c(=O)c2c(nc3n2CCN(CCOc2ccccc2)C3)n(C)c1=O
< 5.00

---

- target.or.system: UniProt P29275
- experiment.description: Displacement of [3H]PSB-603 from human A2B receptor expressed in CHO cell membrane
- Type: cell membranes
measurement.type: Ki

Any idea what Ki was measured for Cn1c(=O)c2c(nc3n2CCN(CCc2ccccc2F)C3)n(C)c1=O ?
> 0.3 µM

Any idea what its Ki is? The molecule is Cn1c(=O)c2c(nc3n2CCN(CCCn2ccnc2)C3)n(C)c1=O
> 1 µM

Report Ki for CC(CN1CCn2c(nc3c2c(=O)n(C)c(=O)n3C)C1)c1ccccc1 (configuration not stated) please.
> 1 µM

---

- target.or.system: UniProt P29275
- Sequence (whole entry): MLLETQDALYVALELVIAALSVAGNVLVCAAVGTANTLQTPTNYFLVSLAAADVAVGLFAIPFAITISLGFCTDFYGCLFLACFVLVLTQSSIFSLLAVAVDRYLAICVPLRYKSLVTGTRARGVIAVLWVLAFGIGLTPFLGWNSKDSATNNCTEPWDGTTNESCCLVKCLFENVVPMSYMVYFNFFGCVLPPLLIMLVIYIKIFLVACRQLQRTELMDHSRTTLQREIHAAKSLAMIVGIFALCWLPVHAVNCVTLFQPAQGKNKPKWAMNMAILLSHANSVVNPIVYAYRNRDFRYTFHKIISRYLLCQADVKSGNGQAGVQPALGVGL
- experiment.description: Displacement of [3H]PSB-603 from human A2B receptor expressed in CHO cell membrane at 0.3 uM relative to control
- Assay type: cell membranes
measurement.type: Activity (%)

1) Cn1c(=O)c2c(nc3n2CCN([C@H]2CCc4ccccc42)C3)n(C)c1=O
11
2) Cn1c(=O)c2c(nc3n2CCN([C@@H]2CCCc4ccccc42)C3)n(C)c1=O
1
3) Cn1c(=O)c2c(nc3n2CCN(CCc2cccs2)C3)n(C)c1=O
17
4) Cn1c(=O)c2c(nc3n2CCN(CCCc2ccccc2)C3)n(C)c1=O
5

A = Cn1c(=O)c2c(nc3n2CCN(CCOc2ccccc2)C3)n(C)c1=O
B = C#CCN1CCn2c(nc3c2c(=O)n(C)c(=O)n3C)C1
API: POST /compare with A and B ; response names the item with higher Activity. Give the label of your selection.
B
(B: 10%, A: 4%)

---

Observed Ki, system UniProt P30543.
Sequence (P30543 whole entry): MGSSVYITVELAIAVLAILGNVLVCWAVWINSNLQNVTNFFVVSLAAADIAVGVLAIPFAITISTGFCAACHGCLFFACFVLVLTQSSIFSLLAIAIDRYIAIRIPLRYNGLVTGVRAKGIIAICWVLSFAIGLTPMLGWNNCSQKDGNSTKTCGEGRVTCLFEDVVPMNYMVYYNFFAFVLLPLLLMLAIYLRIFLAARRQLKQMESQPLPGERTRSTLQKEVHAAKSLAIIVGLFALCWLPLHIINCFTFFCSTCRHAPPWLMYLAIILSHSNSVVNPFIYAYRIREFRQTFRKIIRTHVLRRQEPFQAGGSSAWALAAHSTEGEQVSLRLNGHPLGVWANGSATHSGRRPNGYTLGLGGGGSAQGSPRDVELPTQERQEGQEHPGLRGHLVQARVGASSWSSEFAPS
measurement.type: Ki (nM)

1 = Cn1c(=O)c2c(nc3n2CCN(CCc2ccccc2Cl)C3)n(C)c1=O
2 = Cn1c(=O)c2c(nc3n2CCN(CCc2ccc(Cl)cc2)C3)n(C)c1=O
Of 1 and 2 , whose reported Ki is the larger number? API: response body contains the label of the selected item.
2

P = Cn1c(=O)c2c(nc3n2CCN(c2cccc(Cl)c2)C3)n(C)c1=O
Q = Cn1c(=O)c2c(nc3n2CCN(CCc2ccc(Cl)c(Cl)c2)C3)n(C)c1=O
Lab note: check whether P or Q shows the higher recorded Ki. Please respond with the label that marks your chosen entry.
Q
(Q: 2850 nM, P: 557 nM)

a = Cn1c(=O)c2c(nc3n2CCN(Cc2csc(-c4ccc(C(F)(F)F)cc4)n2)C3)n(C)c1=O
b = Cn1c(=O)c2c(nc3n2CCN(CCc2cccc(Cl)c2)C3)n(C)c1=O
Compare a and b by numeric Ki and name the larger one. Answer = label.
b
(b: 1310 nM, a: 355 nM)

---

- target.or.system: Amine oxidase [flavin-containing] A (Homo sapiens)
- Sequence (P21397 whole entry): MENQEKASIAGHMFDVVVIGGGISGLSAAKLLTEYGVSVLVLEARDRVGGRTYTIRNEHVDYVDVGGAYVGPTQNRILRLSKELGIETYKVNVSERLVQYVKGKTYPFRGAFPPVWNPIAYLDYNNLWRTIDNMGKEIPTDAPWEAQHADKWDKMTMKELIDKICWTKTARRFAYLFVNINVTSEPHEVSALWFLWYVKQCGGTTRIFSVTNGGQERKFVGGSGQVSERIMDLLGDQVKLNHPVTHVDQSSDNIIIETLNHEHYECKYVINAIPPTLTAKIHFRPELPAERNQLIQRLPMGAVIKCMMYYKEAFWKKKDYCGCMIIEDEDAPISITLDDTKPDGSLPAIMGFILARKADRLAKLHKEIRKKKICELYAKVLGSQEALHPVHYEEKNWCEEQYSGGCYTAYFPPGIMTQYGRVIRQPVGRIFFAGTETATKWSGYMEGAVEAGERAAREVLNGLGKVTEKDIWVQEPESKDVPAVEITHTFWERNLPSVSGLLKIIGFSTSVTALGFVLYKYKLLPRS
- experiment.description: Inhibition of recombinant human MAO-A expressed in baculovirus infected BTI insect cells at 10 uM preincubated for 30 mins followed by addition of p-tyramine as substrate measured over 45 mins by Amplex Red MAO assay relative to control
- assay.context: 0.75 h
measurement.type: inhibition at 10 µM (%)

1. Cn1c(=O)c2c(nc3n2CCN(CCc2cccc(F)c2)C3)n(C)c1=O
12
2. Cn1c(=O)c2c(nc3n2CCN(CCOc2ccc(Cl)c(Cl)c2)C3)n(C)c1=O
14
3. Cn1c(=O)c2c(nc3n2CCN(CCCc2ccc(Cl)cc2)C3)n(C)c1=O
12

Where do these numbers come from? They come from ChEMBL document CHEMBL4428125.
